The values you see were collected from paper PMC2248166.

- Target Under Test: HLA B*3501 (Homo sapiens, UniProt P01889, A329T/A93T/A95T/C349S/D201E/D98Y/E176V/E187L/E204Q/E69T/I218V/K202T/L119I/Q94N/R155S/R180L/S121R/S35A/S48A/T118I/V127L/V306I/V36M/Y140S/Y91F)
- Format: binding
Attribute Measured: Normalized average relative binding affinity(ARB)

| Sequence Chain | Test Value |
| --- | --- |
| XXXSXXXXX [3064.0076] | 0.090 |
| XXXXXXXAX [3064.0141] | 1.0 |
| XXXHXXXXX [3064.0067] | 0.16 |
| XXXXXXXRX [3064.0155] | 0.072 |
| XXXXXEXXX [3064.0104] | 0.21 |
| XXXXXXPXX [3064.0133] | 0.31 |
| XXXIXXXXX [3064.0068] | 1.0 |
| XXXXNXXXX [3064.0092] | 1.0 |
| XXXXXXXKX [3064.0149] | 0.36 |
| XXXXXXXFX [3064.0145] | 0.13 |
| XXXXXXXGX [3064.0146] | 0.098 |
| XXXMXXXXX [3064.0071] | 0.27 |
| XXXXXIXXX [3064.0108] | 0.28 |
| XXXXXQXXX [3064.0114] | 0.12 |
| XXXXXNXXX [3064.0112] | 0.16 |
| XXXXPXXXX [3064.0093] | 0.37 |
| XXXNXXXXX [3064.0072] | 0.079 |
| XXXYXXXXX [3064.0080] | 0.085 |
| XXXXXXFXX [3064.0125] | 0.32 |
| XXXXXXXIX [3064.0148] | 0.55 |
| XXXXXXXMX [3064.0151] | 0.28 |
| XXXXXYXXX [3064.0120] | 0.061 |
| XXXXXXXWX [3064.0159] | 0.047 |
| XXXXXVXXX [3064.0118] | 0.34 |
| XXXXXXKXX [3064.0129] | 0.073 |
| XXXXXXWXX [3064.0139] | 1.0 |
| XXXXXAXXX [3064.0101] | 0.21 |
| XXXXMXXXX [3064.0091] | 0.98 |
| XXXXXMXXX [3064.0111] | 0.18 |
| XXXXEXXXX [3064.0084] | 0.34 |
| XXXXXRXXX [3064.0115] | 0.088 |
| XXXXXDXXX [3064.0103] | 0.13 |
| XXXXXSXXX [3064.0116] | 0.33 |

====

- Target Under Test: HLA A*0201 (Homo sapiens, UniProt P04439, D140Y/D185E/D98H/E176V/E277Q/G131W/G231S/I119V/I121R/I166T/I218V/L300P/L318F/N151K/N90K/P208A/P217A/Q86G/Q94H/R138H/R169H/T345S)
- Applied Conditions: positional scanning combinatorial 9-mer library; normalized to 1.0 for the best residue at each position
Classification field: enter 1.0 for Normalized average relative binding affinity (ARB), HLA A*0201 values not below 0.08, 0.0 for values below it.

| Sequence Chain | Class |
| --- | --- |
| XXWXXXXXX [3064.0059] | 1.0 |
| XNXXXXXXX [3064.0032] | 0.0 |
| XXIXXXXXX [3064.0048] | 1.0 |
| XXMXXXXXX [3064.0051] | 1.0 |
| XMXXXXXXX [3064.0031] | 1.0 |
| CXXXXXXXX [3064.0002] | 0.0 |
| RXXXXXXXX [3064.0015] | 1.0 |
| XEXXXXXXX [3064.0024] | 0.0 |
| XXHXXXXXX [3064.0047] | 1.0 |
| XXYXXXXXX [3064.0060] | 1.0 |
| KXXXXXXXX [3064.0009] | 1.0 |
| XXXDXXXXX [3064.0063] | 1.0 |
| FXXXXXXXX [3064.0005] | 1.0 |
| XSXXXXXXX [3064.0036] | 0.0 |
| EXXXXXXXX [3064.0004] | 0.0 |
